I'd be grateful if you could share measured composite z-score for these entries.
- PROCEDURE DETAILS: probe aEGFR binding to arrayed compounds – biochemical, biotinylated probe, 635/667 nm fluorescence, primary screen (AID 1097);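 also: probe is a biotinylated anti-EGFR antibody binding compounds printed on slides; score combines fluorescence near 667 nm and signal to noise of each spot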
- REPORTED CONDITIONS: small-molecule microarray, higher = more signal
Answer field: number only, no words.

Return composite z-score (reported value) for this compound: NC(=O)[C@H]1[C@@H]2C(=O)O[C@@H](c3ccccc3)[C@@H](c3ccccc3)N2[C@@H](c2ccc(O)cc2)[C@]12C(=O)Nc1ccc(C#CC3(O)CCCCCC3)cc12
0.0955

Return composite z-score (reported value) for this compound: CN1C(=O)C2C=CC(C(O)c3cccc4ccccc34)N(NC(=O)OC(C)(C)C)C2C1=O (stereo not given)
0.37

Return composite z-score (reported value) for this compound: NC(=O)NCC#Cc1ccc2c(c1)[C@]1(C(=O)N2)[C@H](c2ccc(O)cc2)N2[C@H](c3ccccc3)[C@H](c3ccccc3)OC(=O)[C@H]2[C@@H]1C(N)=O
-0.187

Return composite z-score (reported value) for this compound: C=CCOc1ccc([C@@H]2CC=C(C(=O)OCC)[C@H](c3cccc(Br)c3)N2S(=O)(=O)c2ccc(C)cc2)cc1
-0.0456

Return composite z-score (reported value) for this compound: O=C1OCCC=C[C@H]2OC34C=CCN(Cn5nnc6ccccc65)C(=O)[C@H]3N(CCCCCO)C(=O)[C@@H]4C12 (stereo not given in full)
-0.2

Return composite z-score (reported value) for this compound: COCCCNC(=O)[C@@H]1c2ccccc2C(=O)N(c2ccc(C)cn2)[C@H]1c1ccc(CO)cc1
-0.379

Return composite z-score (reported value) for this compound: C/C=C/[C@@H](CCn1cc([C@H](O)c2ccccc2)nn1)[Si](C)(C)c1ccc(OC)cc1
-0.298

Return composite z-score (reported value) for this compound: COC(=O)[C@]1(Cc2ccccc2CN=[N+]=[N-])N=C(c2ccc(OCCCO)cc2)O[C@@H]1c1ccccc1
-0.257

Return composite z-score (reported value) for this compound: COCCCNC(=O)[C@]1(Cc2ccccc2)N=C(c2ccc(OCCCO)cc2)O[C@@H]1c1ccccc1N=[N+]=[N-]
-0.0238

Return composite z-score (reported value) for this compound: CC(C)c1ccc(NN2C(C(O)c3ccccn3)C=CC3C(=O)N(c4ccccc4)C(=O)C32)cc1 (stereo not given)
0.154

Return composite z-score (reported value) for this compound: C=C(COC)/C(=C/C[C@@H](OC(=O)c1ccncc1)c1cccc(OCCO)c1)c1cc(C(=O)OC)ccc1OC
-0.0022

Return composite z-score (reported value) for this compound: CCCNC(=O)[C@@H]1c2ccccc2C(=O)N(CC23CC4CC(CC(C4)C2)C3)[C@H]1c1ccc(CO)cc1
0.167

Return composite z-score (reported value) for this compound: O=C1c2ccccc2C(=O)C2CC([C@H]3Oc4ccccc4S(=O)(=O)N4CCC[C@@H]34)=CCC12 (stereo not given in full)
-0.124

Return composite z-score (reported value) for this compound: CC(C)C(CO)N1C(=O)[C@@H]2[C@H]3C(=O)OCC=C[C@H]3OC23C=CCN(Cn2nnc4ccccc42)C(=O)[C@@H]13 (stereo not given in full)
-0.2

Return composite z-score (reported value) for this compound: C[N+](C)(C)CCCC[C@@H]1NC(=O)[C@H]2C[C@@H](C(=O)NCCCCCCN)[C@@H](c3cccc(OCCO)c3)N2C1=O
0.693
